Target sequence: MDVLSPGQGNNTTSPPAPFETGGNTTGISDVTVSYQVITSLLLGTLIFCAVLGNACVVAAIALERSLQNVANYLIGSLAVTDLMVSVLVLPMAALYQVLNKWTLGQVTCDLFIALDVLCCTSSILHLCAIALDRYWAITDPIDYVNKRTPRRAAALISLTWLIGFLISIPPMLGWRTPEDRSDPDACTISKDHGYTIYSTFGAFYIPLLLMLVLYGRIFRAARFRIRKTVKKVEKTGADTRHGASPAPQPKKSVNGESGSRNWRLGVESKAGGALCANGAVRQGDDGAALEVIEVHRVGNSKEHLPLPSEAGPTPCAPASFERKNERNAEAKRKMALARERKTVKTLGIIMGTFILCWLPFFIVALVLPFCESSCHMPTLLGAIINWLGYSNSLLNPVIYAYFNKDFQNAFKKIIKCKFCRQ
Please respond with reported pKi for every item in the list.
Answers are plain numbers, as −log10 of the molar value.

# example entries with known answers
INSERT INTO results (record_smiles, val) VALUES
  ('COc1cccc(OC)c1OCCNCCOc1ccccc1OCc1ccccc1Cl', 8.32),
  ('COc1cccc(OC)c1OCCNCCOc1ccccc1OCc1ccccc1', 7.93),
  ('COc1cccc(OC)c1OCCNCCOc1ccccc1OCc1ccc(Cl)cc1', 7.81),
  ('COc1cccc(OC)c1OCCNCCOc1ccccc1OCc1ccc(C)cc1', 7.65),
  ('COc1cccc(OC)c1OCCNCCOc1ccccc1OCc1cccc(C)c1', 7.74);

Field: pKi. Fill in for each record below.
1. COc1cccc(OC)c1OCCNCCOc1ccccc1OCc1ccccc1[N+](=O)[O-]
2. COc1cccc(COc2ccccc2OCCNCCOc2c(OC)cccc2OC)c1
3. COc1ccccc1COc1ccccc1OCCNCCOc1c(OC)cccc1OC

1: 7.62; 2: 7.51; 3: 7.63

Can you look up the measured pKi of `COc1cccc(OC)c1OCCNCCOc1ccccc1OCc1cccc(Cl)c1` for me?
8.18

###

# Test system: PC-3
# experimental_details: Cytotoxic activity on human PC3 prostate cancer cells by SRB assay
# Assay type: functional
# test_conditions: Homo sapiens, PC-3
endpoint_label: LC50 (50% lethal concentration) (µM)
Answers are plain numbers, in µM.

INSERT INTO assay_data (record_smiles, endpoint_label, unit_of_measure, val) VALUES
  ('COc1cccc(OC)c1OCCNCCOc1ccccc1OCc1ccc(OC(C)C)cc1', 'LC50 (50% lethal concentration)', 'µM', 63.1),
  ('COc1cccc(OC)c1OCCNCCOc1ccccc1OCc1cccc(C)c1', 'LC50 (50% lethal concentration)', 'µM', 87.1),
  ('COc1cccc(OC)c1OCCNCCOc1ccccc1OCc1ccccc1', 'LC50 (50% lethal concentration)', 'µM', 193);

Field: LC50 (50% lethal concentration). Fill in for each record below.
1. COc1cccc(OC)c1OCCNCCOc1ccccc1OCc1ccccc1[N+](=O)[O-]
2. CCOc1ccc(COc2ccccc2OCCNCCOc2c(OC)cccc2OC)cc1
3. COc1cccc(COc2ccccc2OCCNCCOc2c(OC)cccc2OC)c1

1. 95.5
2. 51.3
3. 61.7

###

Sequence of the target: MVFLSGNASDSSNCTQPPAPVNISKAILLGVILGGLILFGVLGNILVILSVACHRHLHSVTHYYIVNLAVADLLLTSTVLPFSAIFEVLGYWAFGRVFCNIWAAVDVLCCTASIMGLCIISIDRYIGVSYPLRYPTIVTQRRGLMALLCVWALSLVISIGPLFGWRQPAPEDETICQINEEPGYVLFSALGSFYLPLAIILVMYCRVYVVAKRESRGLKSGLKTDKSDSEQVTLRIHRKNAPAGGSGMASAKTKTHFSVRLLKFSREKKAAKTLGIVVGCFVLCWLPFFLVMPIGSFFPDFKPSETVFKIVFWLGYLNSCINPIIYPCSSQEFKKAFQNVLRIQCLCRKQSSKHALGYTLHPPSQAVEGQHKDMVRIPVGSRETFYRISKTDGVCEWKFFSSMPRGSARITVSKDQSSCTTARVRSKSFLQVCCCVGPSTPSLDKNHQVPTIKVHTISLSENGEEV
pKi: −log10 of the molar value.
Tick y if pKi is 9 or greater. Tick n if pKi is less than 9.

Could you verify whether the entry `COc1cccc(OC)c1OCCNCCOc1ccccc1OCc1ccccc1` shows pKi of no less than 9?
y

Could you verify whether the entry `COc1ccc(COc2ccccc2OCCNCCOc2c(OC)cccc2OC)cc1` shows pKi of no less than 9?
n

Could you verify whether the entry `COc1cccc(OC)c1OCCNCCOc1ccccc1OCc1ccc(Cl)cc1` shows pKi of no less than 9?
y

Could you verify whether the entry `COc1cccc(OC)c1OCCNCCOc1ccccc1OCc1cccc(C)c1` shows pKi of no less than 9?
y

###

# measurement_target: UniProt:P25100
# Sequence (P25100 whole entry): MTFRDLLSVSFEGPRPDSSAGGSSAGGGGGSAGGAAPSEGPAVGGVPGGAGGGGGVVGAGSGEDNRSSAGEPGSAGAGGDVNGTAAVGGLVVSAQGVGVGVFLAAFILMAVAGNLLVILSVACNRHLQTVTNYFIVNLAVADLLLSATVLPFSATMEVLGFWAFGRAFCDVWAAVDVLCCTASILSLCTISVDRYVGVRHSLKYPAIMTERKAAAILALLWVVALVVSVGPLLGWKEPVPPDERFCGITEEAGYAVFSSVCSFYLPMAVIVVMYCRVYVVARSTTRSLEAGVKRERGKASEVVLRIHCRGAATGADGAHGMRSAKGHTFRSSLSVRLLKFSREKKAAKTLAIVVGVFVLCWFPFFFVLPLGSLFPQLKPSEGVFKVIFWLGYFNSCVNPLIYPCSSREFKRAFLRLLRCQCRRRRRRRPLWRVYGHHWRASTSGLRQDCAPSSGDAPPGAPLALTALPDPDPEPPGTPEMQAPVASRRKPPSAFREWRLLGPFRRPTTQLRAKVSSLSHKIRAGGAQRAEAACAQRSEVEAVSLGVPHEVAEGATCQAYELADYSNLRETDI
endpoint_label: Ki (nM)
Answers are plain numbers, in nM.

# example entries with known answers
INSERT INTO results (record_smiles, unit_of_measure, val) VALUES
  ('COc1cccc(OC)c1OCCNCCOc1ccccc1OCc1ccccc1Cl', 'nM', 0.251),
  ('COc1cccc(OC)c1OCCNCCOc1ccccc1OCc1cccc(Cl)c1', 'nM', 0.0501),
  ('COc1cccc(OC)c1OCCNCCOc1ccccc1OCc1cccc([N+](=O)[O-])c1', 'nM', 0.0631),
  ('COc1cccc(COc2ccccc2OCCNCCOc2c(OC)cccc2OC)c1', 'nM', 0.316),
  ('COc1cccc(OC)c1OCCNCCOc1ccccc1OCc1ccccc1', 'nM', 0.0676);

Field: Ki. Fill in for each record below.
1. COc1cccc(OC)c1OCCNCCOc1ccccc1OCc1ccccc1C
2. COc1cccc(OC)c1OCCNCCOc1ccccc1OCc1ccc(C)cc1
3. COc1cccc(OC)c1OCCNCCOc1ccccc1OCc1ccccc1[N+](=O)[O-]
4. COc1cccc(OC)c1OCCNCCOc1ccccc1OCc1ccc(Cl)cc1

1: 0.126; 2: 0.0631; 3: 0.912; 4: 0.0316

Field: Ki. Fill in for each record below.
1. COc1ccccc1COc1ccccc1OCCNCCOc1c(OC)cccc1OC
2. COc1cccc(OC)c1OCCNCCOc1ccccc1OCc1cccc(C)c1

1. 2
2. 0.2

###

# measurement_target: Alpha-1D adrenergic receptor (Rattus norvegicus) (UniProt P23944)
# experimental_details: ADRA1D blocking activity assessed by antagonism of (-)-NE induced contractions on isolated rat thoracic aorta
# Assay type: functional, tissue-based
Please respond with reported pKb for every item in the list.
One number for each entry.

# example entries with known answers
INSERT INTO assay_data (molecule, endpoint_label, val) VALUES
  ('COc1cccc(OC)c1OCCNCCOc1ccccc1OCc1ccc([N+](=O)[O-])cc1', 'pKb', 9.41),
  ('COc1cccc(OC)c1OCCNCCOc1ccccc1OCc1cccc(C)c1', 'pKb', 8.85),
  ('COc1cccc(OC)c1OCCNCCOc1ccccc1OCc1ccccc1C', 'pKb', 8.64),
  ('COc1cc2nc(N3CCN(C(=O)C4COc5ccccc5O4)CC3)nc(N)c2cc1OC (stereo unspecified) [DOXAZOSIN]', 'pKb', 8.97),
  ('COc1ccc(COc2ccccc2OCCNCCOc2c(OC)cccc2OC)cc1', 'pKb', 9.21);

The record that follows has no pKb shown yet.
Can you look up the measured pKb of `COc1cccc(OC)c1OCCNCCOc1ccccc1OCc1ccccc1Cl` for me?
8.59

###

# measurement_target: Alpha-1D adrenergic receptor (Rattus norvegicus) (UniProt P23944)
# Sequence (whole entry): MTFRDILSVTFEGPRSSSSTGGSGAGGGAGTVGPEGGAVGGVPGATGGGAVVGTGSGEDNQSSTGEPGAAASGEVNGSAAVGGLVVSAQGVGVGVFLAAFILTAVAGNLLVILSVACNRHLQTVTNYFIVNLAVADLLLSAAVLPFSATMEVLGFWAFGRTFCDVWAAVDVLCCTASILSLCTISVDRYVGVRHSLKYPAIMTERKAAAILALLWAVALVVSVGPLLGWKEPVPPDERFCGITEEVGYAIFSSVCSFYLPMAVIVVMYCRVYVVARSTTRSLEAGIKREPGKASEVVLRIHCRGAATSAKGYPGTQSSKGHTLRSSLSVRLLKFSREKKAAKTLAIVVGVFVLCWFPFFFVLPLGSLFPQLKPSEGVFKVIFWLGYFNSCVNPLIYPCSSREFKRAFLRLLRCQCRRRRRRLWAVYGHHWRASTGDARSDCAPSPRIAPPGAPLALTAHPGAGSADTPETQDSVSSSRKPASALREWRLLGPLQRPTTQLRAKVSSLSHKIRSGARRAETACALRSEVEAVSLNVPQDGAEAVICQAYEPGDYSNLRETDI
# experimental_details: ADRA1D blocking activity assessed by antagonism of (-)-NE induced contractions on isolated rat thoracic aorta
# Assay type: functional, tissue-based
endpoint_label: pKb
Numbers only.

# example entries with known answers
INSERT INTO assay_data (record_smiles, val) VALUES
  ('COc1cccc(OC)c1OCCNCCOc1ccccc1OCc1cccc(Cl)c1', 8.72),
  ('COc1cccc(OC)c1OCCNCCOc1ccccc1OCc1ccc(C)cc1', 9.12),
  ('COc1cccc(OC)c1OCCNCCOc1ccccc1OCc1cccc([N+](=O)[O-])c1', 9.28),
  ('CCOc1ccc(COc2ccccc2OCCNCCOc2c(OC)cccc2OC)cc1', 9.11),
  ('COc1cccc(OC)c1OCCNCCOc1ccccc1OCc1ccccc1[N+](=O)[O-]', 8.95),
  ('COc1cccc(OC)c1OCCNCCOc1ccccc1OCc1ccccc1', 9.37),
  ('COc1cccc(OC)c1OCCNCCOc1ccccc1OCc1ccc(Cl)cc1', 9.11),
  ('COc1ccccc1COc1ccccc1OCCNCCOc1c(OC)cccc1OC', 8.86),
  ('COc1cccc(COc2ccccc2OCCNCCOc2c(OC)cccc2OC)c1', 9.12);

Can you look up the measured pKb of `COc1cccc(OC)c1OCCNCCOc1ccccc1OCc1ccc(OC(C)C)cc1` for me?
9.14
